Data origin: patent US9018224B2

Biological target: human GPR119 (Homo sapiens, UniProt Q8TDV5)
Assay: Measurement of GPR119 signaling by cAMP (LANCE cAMP kit or HTRF) in HEK293 cells transfected with human GPR119
Conditions: agonist cAMP response in HEK293 cells stably transfected with human GPR119; patent does not say which of the two cAMP formats (LANCE or HTRF)
Measure Name: pEC50
The scale used: pEC50 is minus the common logarithm of the concentration in molar units.

# value lookup — system human GPR119 (Homo sapiens, UniProt Q8TDV5), readout pEC50, item COc1cnc(N2CCC([C@H]3C[C@H]3CCOc3ccc(CC(=O)N4CC(F)(F)C4)c(F)c3)CC2)nc1 [Example 40] 9.38

# value lookup — system human GPR119 (Homo sapiens, UniProt Q8TDV5), readout pEC50, item COCc1ccc(N2CCC([C@H]3C[C@H]3CCOc3ccc(CC(=O)N4CCC4)c(F)c3)CC2)nc1 [Example 237] 9.03

# value lookup — system human GPR119 (Homo sapiens, UniProt Q8TDV5), readout pEC50, item CCOc1cnc(N2CCC([C@H]3C[C@H]3CCOc3cc(F)c(CC(=O)N4CC(O)C4)c(F)c3)CC2)nc1 [Example 232] 9.26

# value lookup — system human GPR119 (Homo sapiens, UniProt Q8TDV5), readout pEC50, item N#Cc1cc(OCC[C@@H]2C[C@@H]2C2CCN(c3ncc(Cl)cn3)CC2)ccc1CC(=O)N1CCC1 [Example 23] 9.49

# value lookup — system human GPR119 (Homo sapiens, UniProt Q8TDV5), readout pEC50, item COCc1cnc(N2CCC([C@H]3C[C@H]3CCOc3ccc(CC(=O)N4CCCC4(F)F)c(F)c3)CC2)nc1 [Example 52] 9.44

# value lookup — system human GPR119 (Homo sapiens, UniProt Q8TDV5), readout pEC50, item COc1cnc(N2CCC([C@H]3C[C@H]3CCOc3cc(F)c(CC(=O)N4CC(F)(F)C4)c(F)c3)CC2)nc1 [Example 217] 10.15

# value lookup — system human GPR119 (Homo sapiens, UniProt Q8TDV5), readout pEC50, item COCc1cnc(N2CCC([C@H]3C[C@H]3CCOc3cc(F)c(CC(=O)N(C)C4COC4)c(F)c3)CC2)nc1 [Example 226] 9.39

# value lookup — system human GPR119 (Homo sapiens, UniProt Q8TDV5), readout pEC50, item CCc1cnc(N2CCC([C@H]3C[C@H]3CCOc3ccc(CC(=O)N4CCC4)c(Cl)c3)CC2)nc1 [Example 21] 9.72

# value lookup — system human GPR119 (Homo sapiens, UniProt Q8TDV5), readout pEC50, item O=C(Cc1ccc(OCC[C@@H]2C[C@@H]2C2CCN(c3ncc(Cl)cn3)CC2)cc1F)N1CCCC1CO (stereo partly drawn) [Example 108] 8.60

====

Target: UniProtKB Q8TDV5
Sequence (Q8TDV5 1-308 limits assumed): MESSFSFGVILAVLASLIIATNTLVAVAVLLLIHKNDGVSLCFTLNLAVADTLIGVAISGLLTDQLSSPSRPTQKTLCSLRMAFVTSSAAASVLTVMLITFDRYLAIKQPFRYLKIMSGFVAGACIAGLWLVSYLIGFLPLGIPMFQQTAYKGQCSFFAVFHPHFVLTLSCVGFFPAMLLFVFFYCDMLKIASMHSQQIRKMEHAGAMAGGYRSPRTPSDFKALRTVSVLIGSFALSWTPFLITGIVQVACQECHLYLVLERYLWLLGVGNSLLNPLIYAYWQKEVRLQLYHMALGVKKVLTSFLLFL
Assay: Measurement of GPR119 signaling by cAMP (LANCE cAMP kit or HTRF) in HEK293 cells transfected with human GPR119
Conditions: agonist cAMP response in HEK293 cells stably transfected with human GPR119; patent does not say which of the two cAMP formats (LANCE or HTRF)
Hi there, I'd appreciate the recorded pEC50 for every entry that follows.
The scale used: pEC50 is minus the common logarithm of the concentration in molar units.

Can you share its pEC50? I mean this molecule: O=C(Cc1ccc(OCC[C@@H]2C[C@@H]2C2CCN(c3ncc(Cl)cn3)CC2)cc1F)NCC(F)(F)F [Example 79] 8.80

Can you share its pEC50? I mean this molecule: COCc1cnc(N2CCC([C@H]3C[C@H]3CCOc3ccc(CC(=O)N(C)C)c(Cl)c3)CC2)nc1 [Example 28] 8.64

Can you share its pEC50? I mean this molecule: CC1c2nnc(C(F)(F)F)n2C(C)CN1C(=O)Cc1ccc(OCC[C@@H]2C[C@@H]2C2CCN(c3ncc(Cl)cn3)CC2)cc1F (stereo partly drawn) [Example 193] 8.96

Can you share its pEC50? I mean this molecule: CN(C(=O)Cc1ccc(OCC[C@@H]2C[C@@H]2C2CCN(c3ncc(Cl)cn3)CC2)cc1F)C1CCS(=O)(=O)C1 (stereo partly drawn) [Example 162] 8.89

Can you share its pEC50? I mean this molecule: O=C(Cc1ccc(OCC[C@@H]2C[C@@H]2C2CCN(c3ncc(Cl)cn3)CC2)cc1F)N1CCn2ccnc2C1 [Example 149] 8.96

Can you share its pEC50? I mean this molecule: CC1c2nc(C(F)(F)F)nn2CCN1C(=O)Cc1ccc(OCC[C@@H]2C[C@@H]2C2CCN(c3ncc(Cl)cn3)CC2)cc1F (stereo partly drawn) [Example 177] 9.22

Can you share its pEC50? I mean this molecule: O=C(Cc1ccc(OCC[C@@H]2C[C@@H]2C2CCN(c3ncc(Cl)cn3)CC2)cc1F)N1CC(n2ccnc2)C1 [Example 118] 8.96

Can you share its pEC50? I mean this molecule: CCc1cnc(N2CCC([C@H]3C[C@H]3CCOc3ccc(CC(=O)N4CCC4)c(C)c3)CC2)nc1 [Example 16] 8.96

Can you share its pEC50? I mean this molecule: COCc1cnc(N2CCC([C@H]3C[C@H]3CCOc3ccc(CC(=O)N4CC(F)C4)cc3)CC2)nc1 [Example 11] 8.54

Can you share its pEC50? I mean this molecule: O=C(Cc1ccc(OCC[C@@H]2C[C@@H]2C2CCN(c3ncc(Cl)cn3)CC2)cc1F)NC1(C(F)(F)F)CC1 [Example 87] 8.44

Can you share its pEC50? I mean this molecule: Cc1cc(OCC[C@@H]2C[C@@H]2C2CCN(c3ncc(Cl)cn3)CC2)ccc1CC(=O)N(C)C [Example 18] 8.77

Can you share its pEC50? I mean this molecule: O=C(Cc1ccc(OCC[C@@H]2C[C@@H]2C2CCN(c3ncc(Cl)cn3)CC2)nc1)N1CCC1 [Example 242] 8.03
